Each record here notes measured TGI.
Tested on: SF-268 CNS
Experiment: NCI tumour cell line growth inhibition, 48 h
Measured Metric: TGI (µM)

Molecule	Limit Operator	Value Measured
CC(C)(C)c1cc(C(=O)Nc2ccccc2C(=O)NCCN)cc(C(C)(C)C)c1	=	3.62
CC(C)OC(=O)c1ccc(NCc2cc(O)ccc2O)cc1	=	28.4
CC(C)(CN1C(=O)C(Cl)=C(Cl)C1=O)CN1C(=O)C(Cl)=C(Cl)C1=O	=	41.5
CCOC(=O)c1c2ccc(/C=C/c3ccccn3)ccc-2c(C(=O)OCC)c1N	=	0.966
COc1cc2ccc3c4ccccc4cnc3c2cc1OC	>	100
CN(C)CCNc1ccc2ncn3c4ccccc4c(=O)c1c23	=	20.2
O=C(Nc1ccc([N+](=O)[O-])cc1)Nn1cnnc1	>	100
O=S(O)CCCCCSSc1ccccc1	=	85.5
CN(C)CCN(C)P12(Oc3ccccc3O1)Oc1c(Cl)c(Cl)c(Cl)c(Cl)c1O2	>	100
CC(C)=CCc1cc2c(cc1O)C1=C(C(=O)C3=C(C1=O)S(=O)(=O)CCN3)C(C=C(C)C)O2 (stereo unspecified)	=	4.74
COC(=O)C1CC2C=CC=CC(=O)C2(C)C1 (stereo unspecified)	>	100

====

Tested on: UO-31 renal
Assay: NCI tumour cell line growth inhibition, 48 h
Here the recorded TGI is given for each entry.

Molecule	TGI
CC(C)Oc1c(C2(c3ccccc3)SCCCS2)c(=O)c1=O	> 100 µM
CCOC1=C2N=C(C(CC)c3ccccc3F)N=C2C(=O)c2ccccc21 (stereo not drawn)	> 100 µM
CC1(C)OC(=O)C(C)(C)C(=O)O1	> 100 µM
O=C(Nc1ccc(Oc2ccc3nc(NC(=O)c4ccco4)[nH]c3c2)cc1)Nc1cc(C(F)(F)F)ccc1F	5.27 µM
O=C1NC(=S)S/C1=C\c1cn(-c2ccccc2)nc1-c1ccccc1	25.2 µM
O=C1CC2OCC=C3CN4CCC56c7ccccc7N1C5C2C3CC46O (stereo not drawn)	> 100 µM
CC1=NN=C(C)C1N=Nc1ccc2nc(C)[nH]c2c1	77.5 µM
CCN(CC)c1ccc(/C=C/C(=O)c2ccc(Nc3nc(Nc4ccccc4)nc(Nc4ccccc4)n3)cc2)cc1	> 100 µM
CCOC(=O)C(C)(NC(=O)c1ccc(NCc2ccc3nc(NC(=O)c4ccccc4)nc(NC(=O)c4ccccc4)c3c2)cc1)C(=O)OCC	34.9 µM
C/C(=N\O)c1ccc2ccc3ccccc3c2c1	> 100 µM
COc1ccc(C2=Nc3c(nc(OC)[nH]c3=O)NC(c3ccccc3)C2)cc1 (stereo not drawn)	> 100 µM
CCOC(=O)c1c(-c2ccccc2)[n+](=O)c2cc(Cl)c(Cl)cc2n1[O-]	> 100 µM
O=C/C(=C1/C=Cc2cc([N+](=O)[O-])ccc2S1)c1ccccc1	> 100 µM
N#CCCn1[nH]c(=O)c(Cl)c(Cl)c1=O	34.7 µM
CCS(=O)C(=O)N(O)c1ccc(Cl)cc1 (stereo not drawn)	46.7 µM
Cc1cc2ncn(-c3nc4ccccc4nc3C(C#N)S(C)(=O)=O)c2cc1C (stereo not drawn)	> 100 µM
CSc1ncnc2c1cnn2Cc1cnnn1COCC(O)CO (stereo not drawn)	> 100 µM
Cc1ccc(CNc2ccc(Br)cc2)cc1	49.2 µM

====

Tested on: HCT-116 colon
Experiment: NCI tumour cell line growth inhibition, 48 h
Where a SMILES comes first, the peptide text is derived from it. The star is where a group is joined. Trt = c1ccc(C(c2ccccc2)(c2ccccc2)*)cc1; Cbz = O=C(OCc1ccccc1)*
Measured Metric: TGI

Compound	Value Measured
OCC#CCNCl	> 100 µM
O=C1NC(=NCCc2ccc(F)cc2)S/C1=C\c1ccc2ncccc2c1	> 25 µM
COC(=O)C(CO)NC(=O)C(CSC(c1ccccc1)(c1ccccc1)c1ccccc1)NC(=O)OCc1ccccc1 (stereo not drawn) (Cbz-Cys(Trt)-Ser-OMe; configuration not given here)	42.1 µM
CC(CSC(=N)N)C(N)=O (stereo not drawn)	> 100 µM
CC(C)=CCCC(C)(OC1OC(CO)C(O)C(O)C1O)C1CCC2(C)C1C(O)CC1C3(C)CCC(O)C(C)(C)C3C(OC3OC(CO)C(O)C(O)C3OC3OC(C)C(O)C(O)C3O)CC12C (stereo not drawn) (tested in a mixture with another compound)	> 75 µM
O=C1[C@@H]2C(c3ccc(Br)cc3)=NO[C@@H]2C(=O)N1c1ccc(Cc2ccc(N3C(=O)[C@H]4C(c5ccc(Br)cc5)=NO[C@H]4C3=O)cc2)cc1	> 40 µM
CC1(C)C2CCC3CC(CCC#N)CCC3C21C#N (stereo not drawn)	> 100 µM
S=c1sc2c(s1)SC(c1ccccc1)CS2 (stereo not drawn)	> 100 µM

====

Reported values of GI50 for individual entries
Test system: TK-10 renal
Assay: NCI tumour cell line growth inhibition, 48 h

Molecule	System Under Test	GI50
COc1cc2cc(Oc3ccc(NC(=O)Nc4cc(C(F)(F)F)cc(C(F)(F)F)c4)cc3)c(C)nc2cc1OCCN1CCOCC1	TK-10 renal	3.7 µM
O=C1NC(=S)S/C1=C\c1cn(-c2ccccc2)nc1-c1ccccc1	TK-10 renal	8 µM
O=C(Nc1ccc(Oc2ccc3nc(NC(=O)c4ccco4)[nH]c3c2)cc1)Nc1cc(C(F)(F)F)ccc1F	TK-10 renal	2.57 µM
CN(C)c1ccc(/C=C\c2ccnc3ccccc23)cc1	TK-10 renal	14.7 µM
CCOCC1(COCC)CCC(c2[nH]ncc2CN(C)CCNC)CC1	TK-10 renal	> 100 µM
O=C1NC(=NCCc2ccc(F)cc2)S/C1=C\c1ccc2ncccc2c1	TK-10 renal	> 25 µM
COc1cccc(/C=C/C(=O)c2ccc3cc(OC)ccc3c2)c1	TK-10 renal	15.6 µM

====

Test system: DU-145 prostate
Test: NCI tumour cell line growth inhibition, 48 h
Measured Metric: TGI

Molecule	Measured Metric	Value Measured
CCOC(=O)C(NC(=O)OCc1ccccc1)C(=O)O (stereo not given)	TGI	> 100 µM
CCCCCC(=O)N[C@@H](c1ccco1)[C@@H](O)C(=O)O[C@H]1C[C@@]2(O)[C@@H](OC(=O)c3ccccc3)[C@@H]3[C@]4(OC(C)=O)CO[C@@H]4C[C@H](O)[C@@]3(C)C(=O)[C@H](OC(C)=O)C(=C1C)C2(C)C	TGI	0.0101 µM
CNC(=O)c1n[nH]n(C2CCCCC2)c1=S	TGI	> 100 µM
COc1cc2c(c(OC)c1OC)-c1ccc(NN(C(=O)c3ccccc3)C(=O)c3ccccc3)c(=O)cc1[C@@H](NC(C)=O)CC2 (tested in a mixture with another compound)	TGI	> 100 µM
C[N+](C)(CCCCCC[N+](C)(C)CCCN1C(=O)c2cccc3cccc(c23)C1=O)CCCN1C(=O)c2cccc3cccc(c23)C1=O	TGI	> 100 µM
O=C1CC2OCC=C3CN4CCC56c7ccccc7N1C5C2C3CC46O (stereo not given)	TGI	> 100 µM
O=C1NC2NC3NC(=O)NC3NC2N1 (stereo not given)	TGI	> 100 µM
Cc1cc(=O)oc2ccc(OC/C=C3\CCC(=O)O3)cc12	TGI	17.7 µM
Oc1ccc(Cl)cc1C(c1cc(Cl)ccc1O)C(Cl)(Cl)Cl	TGI	3.42 µM
CCOC(=O)c1c[nH]c(C(=O)OCC)c1-c1cccn1-c1ccccc1	TGI	> 100 µM
COc1cccc2c1-c1nc(N)c3c(OC)cccc3c1C2=O	TGI	> 100 µM
O=C1NC(=S)S/C1=C\c1cn(-c2ccccc2)nc1-c1ccccc1	TGI	> 100 µM
O=C(O)C1=C/C(=C(/c2ccccc2)c2cc(C(=O)O)c(O)c3ccccc23)c2ccccc2C1=O	TGI	> 100 µM
O=C1CCN2c3ccccc3[C@H]3Cc4cccc(c4[C@@H]2C3)CCO1	TGI	> 100 µM
C[C@@H](CC(O)C(O)C(C)(C)O)C1CCC23CC12CCC1[C@@]2(C)CCC(O)C(C)(C)C2CC(OC2OC(CO)C(O)C(O)C2O)[C@]13C (stereo not given in full)	TGI	> 10 µM
COc1cc(/C=C2\C(=O)N(Cc3ccc(Cl)cc3)c3ccccc32)cc(OC)c1OC	TGI	5.04 µM
COc1ccc(C(O)/C(=N/N)c2nc3ccc(Cl)cc3[nH]c2=O)cc1 (stereo not given)	TGI	> 100 µM
COc1cc(CNCCCCCCN2C(=O)c3cccc4cccc(c34)C2=O)ccc1O	TGI	18.9 µM
Cc1c(C)c2c(c(N)c1C#N)C(=O)N(O)C2=O	TGI	> 100 µM
Nc1nc(Nc2ccc(Cl)c(Cl)c2)nc2nc[nH]c12	TGI	21.6 µM

====

Tested on: SW-620 colon
Experiment: NCI tumour cell line growth inhibition, 48 h

Compound	TGI
CNC(=O)c1n[nH]n(C2CCCCC2)c1=S	> 100 µM
OCC#CCNCl	> 100 µM
CC(C)C1CNC(=O)C2(C=NC(C(C)C)CNC(=O)C3(C=N1)CCCO3)CCCO2 (stereo not drawn)	> 10 µM
CCS(=O)C(=O)N(O)c1ccc(Cl)cc1 (stereo not drawn)	46 µM
CSc1ccc(C2=C(c3ccccc3)C(=O)OC2)cc1	> 20.1 µM
S=c1sc2c(s1)SC(c1ccccc1)CS2 (stereo not drawn)	> 100 µM
CC1(C)OC(=O)C(C)(C)C(=O)O1	> 100 µM
CC(C)N(C(=O)C12C3C4C1C1C2C3C41C#N)C(C)C (stereo not drawn)	> 100 µM
Cc1c(O)c(=O)ccn1CCN	> 100 µM
O=C1NC(=NCc2ccccc2Cl)S/C1=C\c1ccc2ncccc2c1	> 25 µM
CN(C)CCN(C)P12(Oc3ccccc3O1)Oc1c(Cl)c(Cl)c(Cl)c(Cl)c1O2	> 100 µM
O=C1OC(c2ccccc2)=NC1c1ccccc1 (stereo not drawn)	> 100 µM
CC(=O)Nc1ccc(C(=O)CCl)cc1	3.38 µM
